- System: A549
- experiment: Antiproliferative activity against human A549 cells after 48 hrs by MTT assay
- Type: functional, cell-based
- cond: A549, 48 h
pIC50: −log10 of the molar value.
Overview of recorded pIC50 for various compounds

[
  {
    "smiles_string": "O=C(Cn1cc(-c2ccccc2)nn1)c1ccc(Cl)cc1",
    "result_operator": "<",
    "pIC50": 3.52
  },
  {
    "smiles_string": "Cc1ccc(C(=O)Cn2cc(-c3ccccc3)nn2)cc1",
    "result_operator": "<",
    "pIC50": 3.52
  },
  {
    "smiles_string": "COc1ccc2cc(-c3cn(CC(=O)c4ccccc4)nn3)ccc2c1",
    "result_operator": "<",
    "pIC50": 3.52
  },
  {
    "smiles_string": "Cc1cc(C)c(-c2cn(CC(=O)c3ccccc3)nn2)cc1C",
    "result_operator": "=",
    "pIC50": 4.04
  },
  {
    "smiles_string": "Cc1ccc(-c2cn(CC(=O)c3ccccc3)nn2)cc1",
    "result_operator": "=",
    "pIC50": 3.53
  }
]

====

- experiment: Inhibition of tubulin polymerization at 30 uM
assay_metric: inhibition

[
  {
    "molecule": "Cc1ccc(-c2cn(CC(=O)c3ccccc3)nn2)cc1",
    "assay_metric": "inhibition",
    "meas_value": "2.8%"
  },
  {
    "molecule": "CCC(C(=O)c1ccccc1)n1cc(-c2ccccc2)nn1 (centres undefined)",
    "assay_metric": "inhibition",
    "meas_value": "19.3%"
  },
  {
    "molecule": "Cc1cc(C)c(-c2cn(CC(=O)c3ccccc3)nn2)cc1C",
    "assay_metric": "inhibition",
    "meas_value": "6.6%"
  },
  {
    "molecule": "COc1ccc(C(=O)Cn2cc(-c3ccccc3)nn2)cc1",
    "assay_metric": "inhibition",
    "meas_value": "14.1%"
  }
]

The origin of these recorded values is ChEMBL document CHEMBL1275319.
